Assay: A CellTox Green Cytotoxicity Assay to monitor cytotoxicity in HEK293 cells - 32 hour (AID 1224881); further: nearly all actives have a fitted effect of over 40% in size
Conditions: CellTox Green fluorescence; series mostly up to 76.8 µM
Source text: National Center for Advancing Translational Sciences [NCATS] NIH Chemical Genomics Center [NCGC] U.S. Environmental Protection Agency [EPA] National Institutes of Environmental Health Sciences [NIEHS] National Toxicology Program [NTP] Cell-based models are critical for drug discovery. […] Viable cells produce no appreciable increases in fluorescence. Therefore, the fluorescence signal produced by the binding interaction with dead cell DNA is proportional to cytotoxicity. […]
Inconclusive results are not listed. Activity calls are given as the source filed them. The call rests on the fitted dose curve; in most records, active means well fitted activation curve with a large enough effect in the repeat runs; inconclusive means weak or mixed curves; inactive means flat fitted curve, though single readings scatter.
experimentalReadout: outcome

Worked set:
- compound: "COc1ccc(C(C)=O)cc1"
  experimentalReadout: "outcome"
  recordedValue: "inactive"
- compound: "Cc1ccc(C(N)=O)cc1N"
  experimentalReadout: "outcome"
  recordedValue: "inactive"
- compound: "CC(C)NCC(O)COc1ccc(CC(N)=O)cc1 (stereo unspecified)"
  experimentalReadout: "outcome"
  recordedValue: "inactive"
- compound: "CC/C(=C\\C(=N/O)C(N)=O)C(C)[N+](=O)[O-] (stereo unspecified)"
  experimentalReadout: "outcome"
  recordedValue: "inactive"
- compound: "CC(C)c1cccc(C(C)C)c1NC(=O)NS(=O)(=O)c1cc(C(C)(C)O)co1"
  experimentalReadout: "outcome"
  recordedValue: "inactive"

Find the recorded outcome belonging to C=C(C)C(=O)OCCN(C)C and report it.
inactive

Requested field: outcome. Item: CCCCC(CC)COCCCN (stereo unspecified)
inactive

Report outcome for FC(F)(F)C(F)(F)C(F)(F)C(F)(F)C(F)(F)C(F)(F)CCI please.
inactive

Please look up its outcome: CCCC[C@H]1CN(CC2CCOCC2)C(=O)OC12CCN(C1(C)CCN(C(=O)c3c(C)ncnc3C)CC1)CC2
inactive

If you can, please state the reported outcome value of COc1ccccc1OC(=O)Oc1ccccc1OC .
inactive

Item CC(=O)N(O)CCCCCNC(=O)CCC(=O)N(O)CCCCCNC(=O)CCC(=O)N(O)CCCCCN has what recorded outcome?
inactive

* * *

Biological target: Androgen receptor (Homo sapiens) (UniProt P10275)
Sequence (P10275 whole entry, looked up): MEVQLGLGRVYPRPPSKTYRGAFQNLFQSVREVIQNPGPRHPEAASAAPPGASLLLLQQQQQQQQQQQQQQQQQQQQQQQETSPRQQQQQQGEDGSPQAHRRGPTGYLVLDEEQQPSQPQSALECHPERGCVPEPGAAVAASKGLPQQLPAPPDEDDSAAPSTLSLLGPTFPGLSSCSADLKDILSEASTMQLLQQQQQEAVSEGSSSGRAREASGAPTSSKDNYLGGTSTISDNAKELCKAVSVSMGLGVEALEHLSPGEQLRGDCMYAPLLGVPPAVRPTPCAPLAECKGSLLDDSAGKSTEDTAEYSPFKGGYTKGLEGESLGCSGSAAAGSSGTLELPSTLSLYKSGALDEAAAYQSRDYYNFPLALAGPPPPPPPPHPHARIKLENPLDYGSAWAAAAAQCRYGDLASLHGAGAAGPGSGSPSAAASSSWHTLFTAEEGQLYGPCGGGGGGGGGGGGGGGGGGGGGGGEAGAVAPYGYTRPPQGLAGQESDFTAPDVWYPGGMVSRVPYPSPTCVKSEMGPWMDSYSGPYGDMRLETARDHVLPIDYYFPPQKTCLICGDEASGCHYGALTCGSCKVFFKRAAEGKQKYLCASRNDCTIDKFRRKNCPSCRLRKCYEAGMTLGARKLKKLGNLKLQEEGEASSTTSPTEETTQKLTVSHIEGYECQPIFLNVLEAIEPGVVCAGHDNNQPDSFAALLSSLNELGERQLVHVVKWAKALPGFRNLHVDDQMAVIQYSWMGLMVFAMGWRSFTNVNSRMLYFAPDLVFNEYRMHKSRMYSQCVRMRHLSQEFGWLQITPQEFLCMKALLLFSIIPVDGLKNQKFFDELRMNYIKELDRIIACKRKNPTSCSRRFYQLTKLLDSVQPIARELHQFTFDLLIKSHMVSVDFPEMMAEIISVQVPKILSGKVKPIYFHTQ
Test: qHTS assay to identify small molecule agonists of the androgen receptor (AR) signaling pathway in the presence of an antagonist (AID 1259381); further: nearly all actives have a fitted effect of over 15% in size
Conditions: MDA-kb2 MMTV-luciferase, AR agonist + nilutamide, 16 h; series mostly up to 92.4 µM
Source text: National Center for Advancing Translational Sciences [NCATS] NIH Chemical Genomics Center [NCGC] U.S. Environmental Protection Agency [EPA] National Institutes of Environmental Health Sciences [NIEHS] National Toxicology Program [NTP] Assay overview: Androgen receptor (AR) is an important member of nuclear receptor family. Its signaling plays a critical role in AR-dependent prostate cancer and other androgen related diseases. […]
The source made the active and inactive calls. Calls come from the whole dose curve.
Could you please pick one outcome from this set? 1 (active), -1 (inactive)

- compound: "O=C(Cl)c1ccc([N+](=O)[O-])cc1"
  cat: -1
- compound: "CCCCOC(O)CC (stereo unspecified)"
  cat: -1
- compound: "NC(=S)N/N=C/c1cccnc1"
  cat: -1

# fetch the recorded call for COCCOCCOCCOCCOC here
-1

What outcome does the record of this test show for CCCCCCCC/C=C\CCCCCCCC(N)=O ?
-1

For this compound, state the assay outcome: O=C(C(=O)c1ccc(Br)cc1)c1ccc(Br)cc1
1
